# Papp A→B per record follows
Assay: in vitro
Settings: human, Caco-2, Caco-2 permeability Papp A to B
reported_metric: Papp A→B (×10⁻⁶ cm/s)

molecule	relation_qualifier	test_value
CC(C)(C)[C@H](NC(=O)C(F)(F)F)C(=O)N1C[C@H]2[C@@H]([C@H]1C(=O)N[C@H](C#N)C[C@@H]1CCNC1=O)C2(C)C [Nirmatrelvir]	<	0.1
Cn1cnc(Cn2c(=O)[nH]/c(=N\c3cc4cn(C)nc4cc3Cl)n(Cc3cc(F)c(F)cc3F)c2=O)n1 [Ensitrelvir]	=	0.42
